Reported EC50 by item:
# target_or_test_system: human TGR5 (h-TGR5) (Homo sapiens)
# Construct: expressed in transfected cells
# Sequence (Q8TDU6 whole entry): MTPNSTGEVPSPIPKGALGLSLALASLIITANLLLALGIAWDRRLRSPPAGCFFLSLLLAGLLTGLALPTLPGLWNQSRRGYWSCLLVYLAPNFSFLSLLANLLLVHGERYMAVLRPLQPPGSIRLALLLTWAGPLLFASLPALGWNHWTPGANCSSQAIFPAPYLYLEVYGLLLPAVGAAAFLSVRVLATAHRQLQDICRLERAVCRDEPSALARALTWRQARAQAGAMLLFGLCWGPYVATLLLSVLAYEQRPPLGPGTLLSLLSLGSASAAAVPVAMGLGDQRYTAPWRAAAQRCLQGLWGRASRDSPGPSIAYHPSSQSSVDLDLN
# procedure_details: TGR5/CRE-Luciferiase Assay (HEK 293 hTGR5/CRE-Luc cells)
# Type: cell-based
# assay_conditions: h-TGR5 CRE-Luc EC50, Table 1; read-out: CRE-Luc (EC50)

compound | EC50
CC(C)(c1ccc(Cl)c(Cl)c1)c1cnc(SCc2ccc(S(N)(=O)=O)c(F)c2)n1-c1ccc(F)cc1 | 0.1 to 1 µM
COc1cc(C(C)(C)c2cnc(SCc3ccc(S(=O)(=O)NC(=O)NN4CCCC4)cc3Cl)n2-c2cc(C)c(F)cn2)ccc1Cl | 0.1 to 1 µM
COc1cc(C(C)(C)c2cnc(SCc3ccc(C(=O)NCCC(=O)O)cc3F)n2-c2ccc(F)cc2)ccc1Cl | < 0.1 µM
CN1CCN(c2ccc(CSc3ncc(C(C)(C)c4ccc(Cl)c(Cl)c4)n3-c3ccc(F)cc3)cc2F)CC1 | 0.1 to 1 µM
COc1cc(C(C)(C)c2cnc(COc3ccc(Cl)c(-c4nnn[nH]4)c3)n2-c2ccc(F)cc2)ccc1Cl | < 0.1 µM
CC(C)(c1ccc(F)c(F)c1)c1cnc(SCC2CCN(S(C)(=O)=O)CC2)n1-c1ccc(F)cc1 | < 0.1 µM
CC(C)(c1ccc(F)c(F)c1)c1cnc(SCc2ccc(S(N)(=O)=O)cc2Cl)n1-c1ccc(F)cc1 | 0.1 to 1 µM
COc1cc(-n2c(C(C)(C)c3ccc(S(N)(=O)=O)c(Cl)c3)cnc2SCc2ccc(S(N)(=O)=O)cc2Cl)ccc1F | < 0.1 µM
COc1cc(C(C)(C)c2cnc(SCc3ccc(S(=O)(=O)NC(=O)NC4CCCC4)cc3Cl)n2-c2ccc(F)cc2)ccc1Cl | < 0.1 µM
COc1cc(C(C)(C)c2cnc(S(=O)(=O)CC3CCN(S(C)(=O)=O)CC3)n2-c2ccc(F)cc2)ccc1Cl | 0.1 to 1 µM
CC(C)(O)c1cc(CSc2ncc(C(C)(C)c3ccc(Cl)c(Cl)c3)n2-c2ccc(F)cc2)ccc1Cl | 0.1 to 1 µM
CC(C)(c1ccc(Cl)c(Cl)c1)c1cnc(S(=O)(=O)Cc2ccc(Cl)cc2Cl)n1-c1ccc(F)cc1 | 1 to 10 µM
COc1cc(-n2c(C(C)(C)c3ccc4onc(N)c4c3)cnc2SCc2c(F)cc(C(=O)NC(CCCNC(=N)N)C(=O)O)cc2Cl)ccc1F (stereo not shown) | < 0.1 µM
COc1cc(-n2c(C(C)(C)c3ccc(F)c(Cl)c3)cnc2SCc2c(F)cc(OCCNC(=N)N)cc2F)ccc1F | < 0.1 µM
CC(C)(c1ccc(F)c(F)c1)c1cnc(SCc2ccc(S(=O)(=O)NC(=O)NN3CCCC3)cc2Cl)n1-c1ccc(F)c(F)c1 | 0.1 to 1 µM
CC(C)(c1ccc(S(N)(=O)=O)c(Cl)c1)c1cnc(SCc2ccc(S(=O)(=O)NC(=O)NN3CCCC3)cc2Cl)n1-c1ccc(F)cc1 | 0.1 to 1 µM
CC(C)(c1ccc(C(F)F)c(F)c1)c1cnc(SCc2ccc(S(=O)(=O)NC(=O)NN3CCCC3)cc2Cl)n1-c1ccc(F)cc1 | 0.1 to 1 µM
CC(C)(c1ccc(Cl)c(Cl)c1)c1cnc(SCc2ccc(S(N)(=O)=O)cc2Cl)n1-c1ccc(F)cc1 | 0.1 to 1 µM
COc1cc(C(C)(C)c2cnc(SCc3c(F)cc(OCCNC(=N)N)cc3F)n2-c2ccc(F)cc2)ccc1F | < 0.1 µM
COc1c(Cl)cc(C(C)(C)c2cnc(SCc3ccc(F)cc3Cl)n2-c2ccc(F)cc2)cc1Cl | < 0.1 µM
COc1cc(C(C)(C)c2cnc(SCc3c(F)cc(C(=O)O)cc3Cl)n2-c2ccc(F)cc2)ccc1Cl | < 0.1 µM
CC(C)NC(=O)NS(=O)(=O)c1ccc(CSc2ncc(C(C)(C)c3ccc(Cl)c(Cl)c3)n2-c2ccc(F)cc2)c(Cl)c1 | 0.1 to 1 µM
COc1ccc(C(C)(C)c2cnc(SCc3ccc(F)c(C(N)=O)c3)n2-c2ccc(F)cc2)cc1OC | < 0.1 µM
COc1cc(C(C)(C)c2cnc(SCC3CCN(CC(=O)O)CC3)n2-c2ccc(F)cc2)ccc1Cl | 1 to 10 µM
COc1cc(C(C)(C)c2cnc(SCc3ccc(S(=O)(=O)NC(=O)N4CCC(O)C4)cc3Cl)n2-c2ccc(F)cc2)ccc1Cl (stereo not shown) | 1 to 10 µM
COc1ccc(C(C)(C)c2cnc(SCc3ccc(F)c(Cl)c3)n2-c2ccc(F)cc2)cc1OC | < 0.1 µM
COc1cc(-n2c(C(C)(C)c3ccc(Cl)c(Cl)c3)cnc2SCc2ccc(S(=O)(=O)NC(=O)NN3CCCC3)cc2Cl)ccc1F | 0.1 to 1 µM
COc1cc(-n2c(C(C)(C)c3ccc(Cl)c(Cl)c3)cnc2SCc2ccc(F)cc2Cl)ccc1F | 0.1 to 1 µM
COc1cc(C(C)(C)c2cnc(SCc3c(F)cc(C(=O)N[C@H](CCCNC(=N)N)C(=O)O)cc3Cl)n2-c2ccc(F)cc2)ccc1Cl | < 0.1 µM
CC(C)(c1ccc(Cl)c(Cl)c1)c1cnc(SCc2c(F)cc(C(=O)O)cc2Cl)n1-c1ccc(F)cc1 | < 0.1 µM
COc1ccc(C(C)(C)c2cnc(CNc3ccc(F)c(Cl)c3)n2-c2ccc(F)cc2)cc1OC | 0.1 to 1 µM
